test system: HepG2 2.2.15; test: Cell Titer 96 (Toxicity) in the secondary assay; assay type: cell-based; conditions: HepG2 2.2.15 cells, unit from conc. ranges in the 1st table, listed as 3TC (2), read-out: CC50 - compound concentration that reduces cell viability by 50%
ASSAY_READOUT: CC50

Query: CC50; subject: Nc1ccn([C@@H]2CS[C@H](CO)O2)c(=O)n1
> 1 µM

----------
tested on: HepG2 2.2.15; assay: Cell Titer 96 (Toxicity) in the secondary assay; format: cell-based; conditions: HepG2 2.2.15 cells, unit from conc. ranges in the 1st table, listed as 3TC (1), read-out: CC50 - compound concentration that reduces cell viability by 50%
ASSAY_READOUT: CC50

Param readout = CC50; param system = HepG2 2.2.15; param query = Nc1ccn([C@@H]2CS[C@H](CO)O2)c(=O)n1 ; response: value
> 500 nM

----------
tested on: HepG2 2.2.15; experiment: Cell Titer 96 (Toxicity) in the secondary assay; type: cell-based; conditions: HepG2 2.2.15 cells, unit from conc. ranges in the 1st table, listed as 3TC (3), read-out: CC50 - compound concentration that reduces cell viability by 50%
ASSAY_READOUT: CC50

Query: CC50; subject: Nc1ccn([C@@H]2CS[C@H](CO)O2)c(=O)n1 [Compound 3TC, 2′,3′-dideoxy-3′-thiacytidine]
> 2 µM

----------
experiment: Cell Titer 96 (Toxicity) in the secondary assay; type: cell-based; settings: human, HepG2 2.2.15 cells (confluent cultures), unit from conc. ranges in the 1st table, read-out: CC50 - compound concentration that reduces cell viability by 50%
ASSAY_READOUT: CC50 at 7 days (µM)
Please state the figure in µM; there is no need to write the unit.

Query: CC50 at 7 days; subject: CCC[C@H](Nc1nc(-c2ccc(NC(=O)NCC)c(OC)c2)ncc1C)c1cccnc1 (stereo in doubt)
25.4
